test system: UO-31 renal; assay: NCI-60 one-dose screen, 48 h; conditions: 10 µM unless noted
The panel holds about 83,000 compounds, 20% with a hit somewhere; the sample as a whole holds those more often. Activity calls are given as the source filed them. How the source made its calls: active means growth percent below 10; inactive means the rest.
Field 'call' accepts active, inactive

compound: C=C(C)[C@@H]1CC[C@]2(C(=O)N3CCN(C)CC3)CC[C@]3(C)[C@H](CC[C@@H]4[C@@]5(C)C/C(=C/c6ccncc6)C(=O)C(C)(C)[C@@H]5CC[C@]43C)[C@@H]12
assigned-label: inactive

*Q* State the result this test recorded for `O=C(Cc1ccc(/C=C/C(=O)c2ncc[nH]2)cc1)Nc1ccc(Cl)cc1` .
*A* active

*Q* Would you mind doing `CN1CCN(C(=O)[C@]23CCC(C)(C)C[C@H]2C2=CC[C@@H]4[C@@]5(C)C/C(=C/c6ccncc6)C(=O)C(C)(C)[C@@H]5CC[C@@]4(C)[C@]2(C)CC3)CC1` as well?
*A* inactive

*Q* Now consider `C#CCNC(=O)c1cccc2c1cc(C)n2-c1nc2c(c(NCc3ccccc3)n1)CCCC2` and answer again.
*A* active

*Q* Cool, now CCOC(=O)C1=C(CCl)NC(=O)NC1c1ccc2c(c1)OCO2 (configuration not stated)
*A* inactive

*Q* And the next one, `C=C1C(=O)O[C@H]2[C@H]1CC/C(COC(=O)NCc1c[nH]c3ccc(Cl)cc13)=C\CC[C@@]1(C)O[C@@H]21` ?
*A* active

----------
test system: OVCAR-8 ovarian; test: NCI-60 one-dose screen, 48 h; conditions: 10 µM unless noted
About 83,000 compounds went through this panel and 20% of them were active in at least one assay; those are over-represented in the sample as a whole. The source made the active and inactive calls. How the source made its calls: active means growth percent below 10; inactive means the rest.
Hi! Could you answer with just one of these? 1 = active, -1 = inactive

Example entries and their recorded answers appear below.
compound: CCCCC[n+]1ccc(SCC(=O)N(C)c2ccc(Oc3ccccc3)cc2)c2ccccc21
assigned-label: -1

compound: CCCCCCNC(=O)Nc1ccc2cc3ccc(NC(=O)NCCCCCC)cc3nc2c1
assigned-label: 1

*Q* Dear all, I need the recorded test outcome for `Cc1cc(C)c(S(=O)(=O)Oc2ccccc2[N+](=O)[O-])c(C)c1` , thank you.
*A* -1

*Q* And for `C=C(C)[C@@H]1CC[C@]2(C(=O)N3CCN(C)CC3)CC[C@]3(C)[C@H](CC[C@@H]4[C@@]5(C)CC[C@H](O)C(C)(C)[C@@H]5CC[C@]43C)[C@@H]12` ?
*A* 1

*Q* What about this compound? `CCOC(=O)[C@@H](C)C[C@H](Cc1ccccc1)NC(=O)c1csc([C@@H](C[C@H](C(C)C)N(C)C(=O)[C@@H](NC(=O)[C@H]2C[C@H](O[Si](C)(C)C(C)(C)C)CCN2C)C(C)C)OC(C)=O)n1`
*A* 1

----------
system: HCT-15 colon; experiment: NCI-60 one-dose screen, 48 h (100 = growth as untreated, 0 = no growth, -100 = all killed); settings: 10 µM unless noted
The panel holds about 83,000 compounds, 20% with a hit somewhere; the sample as a whole holds those more often. The source made the active and inactive calls. Rule for the calls: active = growth percent below 10; inactive = the rest.
readout: growth

molecule: COc1cccc(-c2nc3occn3c2-c2ccnc(NCCNS(=O)(=O)c3ccc(C(F)(F)F)cc3)n2)c1
readout: growth
reading: 80% (inactive)

For every item in the list below, what is its measured growth?
1. Cc1ccc(-n2nc3c(c(C#N)c2=O)CC(c2ccccc2[N+](=O)[O-])C([N+](=O)[O-])=C3O)cc1 (stereo not drawn)
2. CCN1CCN(CCNc2nccc(-c3c(-c4cccc(OC)c4)nc4occn34)n2)S1(=O)=O
3. CC(C)c1ccc(Nc2ccc3c(OCCCN4CCN(C)CC4)cccc3n2)cc1
4. O=C1/C=C/[C@@H](O)[C@@H]2C[C@@H](O)C[C@H]2/C=C/CCC[C@H](CCc2ccc3ncccc3c2)O1

*A*
84.1% (inactive)
102% (inactive)
-35.9% (active)
6.02% (active)

For every listed record, write down its growth.
1. Cc1ccc(NC(=O)c2cc(-c3nc4ccccc4s3)c(=O)n(NS(=O)(=O)c3ccc(Cl)cc3)c2N)cc1
2. O=C1c2ccc3c4c(ccc(c24)C(=O)N1CCCNCc1ccccc1)C(=O)N(CCCNCc1ccccc1)C3=O
3. COc1cc(NC(=O)CSc2nc3ccc(C)cc3c(=O)n2Cc2ccccc2)cc(OC)c1OC
4. COc1cc(C2C3CC4CCCC[C@H]4N3[C@@]3(C(=O)Nc4cc(Cl)ccc43)C2C(=O)c2nc3ccccc3[nH]2)cc(OC)c1OC (stereo partly drawn)
5. CCNC(=O)Oc1ccc(/C(=C(\C)c2ccccc2)c2ccc(OCCCN(C)C)cc2)cc1
6. Cn1ccnc1C(=O)/C=C/c1ccc(CC(=O)Nc2ccc(F)cc2)cc1
7. O=C(C1CCC1)N1N=C(c2ccc(-n3ccc(C(F)(F)F)n3)cc2)CC1c1ccc[nH]1 (stereo not drawn)

*A*
96% (inactive)
-57.7% (active)
84.4% (inactive)
43.3% (inactive)
52.1% (inactive)
14.1% (inactive)
85.6% (inactive)

Would you mind listing growth for each of the following molecules?
1. O=C(Nc1cccc(C2=NCCN2)c1)c1ccc(-c2ccc(C(=O)Nc3cccc(C4=NCCN4)c3)cc2)cc1
2. O=S(=O)(NCCNc1nccc(-c2c(-c3cccc(F)c3)nc3sccn23)n1)c1ccc(Cl)cc1
3. CN(C)c1ccc(C2C(C#N)=C(/N=C/c3ccccc3)Oc3c2ccc2ccccc32)cc1 (stereo not drawn)
4. O=C1C=CC(=O)N1c1cccc(Cl)c1
5. COc1ccccc1/C(C)=N/NC(=O)CSc1nc2ccccc2c(=O)n1Cc1ccc(S(N)(=O)=O)cc1
6. CCN(Cc1ccccc1)c1ccc(C=O)cc1

*A*
["82.6% (inactive)", "31.8% (inactive)", "48% (inactive)", "101% (inactive)", "97.6% (inactive)", "91% (inactive)"]
